These entries and their values trace back to paper PMC10397247.

# systemTested: T1, 4H3277-bN
# T1 chain: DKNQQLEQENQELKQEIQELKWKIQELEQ
# methodSummary: two-hybrid library CCNG1;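 further: natural log of median RNA to DNA barcode read ratio; higher means stronger binding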
endpointName: interaction score
Lab note: record just the number, no unit beside it.

Below, 3 binders whose answers are already recorded.
>>> df
                                     binder  observedresult
0  DEIQQLEQKIQELEQKNQELKWKNQELEQ [4H319-bN]          -0.892
1  DKIQQLEQKNQELEQEIQELEWKIQELKQ [4H2438-bN]          -0.843
2  DENQQLEQEIQELEQKNQELKWEIQELEQ [4H1081-bN]           -2.73

// query interaction score value for entry DKIQQLEQEIQELKQENQELEWKIQELKQ [4H2134-bN]
-0.911

Suppose we examine the binder DKIQQLEQKNQELKQEIQELEWKNQELEQ [4H2503-bN] ; what interaction score value has been reported?
0.0524

Return reported interaction score; argument: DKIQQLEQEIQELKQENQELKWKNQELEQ [4H2143-bN]
-0.382

Would you kindly share the measured interaction score for DKNQQLEQEIQELKQKIQELEWKNQELEQ [4H3175-bN] ?
0.658

Would you mind telling me what interaction score value was observed for DENQQLKQEIQELEQEIQELEWKNQELKQ [4H1544-bN] ?
-0.11

Would you mind telling me what interaction score value was observed for DENQQLEQKIQELKQENQELKWKIQELEQ [4H1373-bN] ?
-1.18

Requested read-out: interaction score. Entry: DKIQQLKQENQELEQEIQELEWENQELKQ [4H2692-bN]
-0.49

interaction score lookup needed for DENQQLKQENQELEQKIQELKWKIQELKQ [4H1710-bN] , thanks.
0.0226

Name the reported interaction score value associated with the binder DKNQQLEQEIQELKQENQELKWEIQELKQ [4H3162-bN]
-0.514
